test system: Alternaria solani; experiment: Spore germination test; assay type: cell-based; conditions: AS, 1.0 ppm, 48 hours
result-type: Spore Germination Rating

Answer with reported Spore Germination Rating of `Cc1ccc(Oc2nsnc(Cl)c2=O)c(Br)c1`
4 (80-100)

For `Cc1cc(Oc2nsnc(Cl)c2=O)cc(C)c1Cl` , write its Spore Germination Rating.
4 (80-100)

# return recorded Spore Germination Rating for input `Cc1ccc(Oc2nsnc(Cl)c2=O)c(C)c1`
3 (60-80)

Give Spore Germination Rating for `COc1ccc(Oc2nsnc(Cl)c2=O)cc1`
2 (40-60)

---

test system: Cladosporium cucumerinum; assay: Mycelial growth test; format: cell-based; conditions: Cladosporium cucumerinum, 72 h, CC, 40 ppm, read-out: Percent Fungus Growth Inhibition
result-type: inhibition at 40 ppm
Answer as a quantity: numeral, then unit.

Give the reported value of inhibition at 40 ppm for this record: O=c1c(Cl)nsnc1Oc1ccc([N+](=O)[O-])cc1 [Compound 9]
100%

Provide measured inhibition at 40 ppm value, entry: CC(=O)Nc1ccc(Oc2nsnc(Cl)c2=O)cc1 [Compound 8]
100%

Read the entry CS(=O)(=O)c1ccc(Oc2nsnc(Cl)c2=O)cc1 [Compound 41] and write its reported inhibition at 40 ppm.
65%

Return inhibition at 40 ppm for the following molecule: Cc1cc(C)cc(Oc2nsnc(Cl)c2=O)c1 [Compound 25]
100%

Give reported inhibition at 40 ppm value for Cc1ccc(Cl)c(Oc2nsnc(Cl)c2=O)c1 [Compound 56]
100%

Quote inhibition at 40 ppm reported for CCOC(=O)c1ccc(Oc2nsnc(Cl)c2=O)cc1 [Compound 7] please.
100%

Indicate the recorded inhibition at 40 ppm value for this molecule: O=c1c(Cl)nsnc1Oc1ccccc1Cl [Compound 14]
100%

State its inhibition at 40 ppm for this molecule: CC(=O)Nc1cccc(Oc2nsnc(Cl)c2=O)c1 [Compound 42]
18%

Item O=c1c(Cl)nsnc1Oc1ccc(Cl)cc1 [Compound 12] : provide inhibition at 40 ppm
100%

Recall and state the measured inhibition at 40 ppm for O=C(Nc1ccccc1)Nc1ccc(Oc2nsnc(Cl)c2=O)cc1 [Compound 29] .
31%

Determine from records and report inhibition at 40 ppm for O=c1c(Cl)nsnc1Oc1c(Cl)cc(Cl)cc1Cl [Compound 30]
100%

Tell me its inhibition at 40 ppm given Cc1ccc(Oc2nsnc(Cl)c2=O)cc1 [Compound 3] as the entry.
100%

Provide only the value of recorded inhibition at 40 ppm for CC(=O)c1ccc(Oc2nsnc(Cl)c2=O)cc1 [Compound 47]
77%

Consider the molecule Cc1cccc(C)c1Oc1nsnc(Cl)c1=O [Compound 24] and give its recorded inhibition at 40 ppm.
100%

Please indicate inhibition at 40 ppm recorded for N#Cc1ccc(Oc2nsnc(Cl)c2=O)cc1 [Compound 10]
100%

Give reported inhibition at 40 ppm value for Cc1cc(Oc2nsnc(Cl)c2=O)cc(C)c1Cl [Compound 59]
61%

Annotate the molecule O=C(O)Cc1ccccc1Oc1nsnc(Cl)c1=O [Compound 45] with its measured inhibition at 40 ppm.
0%

Determine its reported inhibition at 40 ppm: O=c1c(Cl)nsnc1Oc1ccc(F)cc1 [Compound 11]
100%

Answer with reported inhibition at 40 ppm of O=c1c(Cl)nsnc1Oc1ccc([N+](=O)[O-])cc1Cl [Compound 53]
65%

Check the records and state inhibition at 40 ppm for O=c1c(Cl)nsnc1Oc1ccc(Cl)cc1Cl [Compound 17]
100%

Assign inhibition at 40 ppm to the following record: O=c1c(Cl)nsnc1Oc1cccc(Cl)c1Cl [Compound 19]
100%

Return value of inhibition at 40 ppm for input COc1cc(Oc2nsnc(Cl)c2=O)cc(OC)c1C(C)=O [Compound 61] , no commentary.
52%
